- Assay name: Quantitative High-Throughput drug screen in 47 multiple myeloma cell lines against the NCATS MIPE library collection: Karpas620_DSMZ cell viability assay (AID 1918959); further: nearly all actives have a fitted effect of over 30% in size
- Recorded conditions: Karpas620 myeloma viability, CellTiter-Glo ATP luminescence, 48 h; series mostly up to 45.8 µM
- Source text: PI: Beverly A. Mock Ph.D. Laboratory of Cancer Biology and Genetics, Center for Cancer Research, National Cancer Institute, National Institute of Health, Bethesda, Maryland […] 5; Detector; 425V; Luminescence; Viewlux PerkinElmer. […] 1. […] Briefly, the corresponding myeloma cell lines were screened in 1,536-well plates with 500 cells, 5-uL per well for inhibition of cell viability (assessed by measuring ATP levels with CellTiterGlo). […]
Inconclusive results are not listed. Calls of active or inactive are those of the source. The call rests on the fitted dose curve; in most records, active means well fitted cell-killing curve with a large enough effect; inconclusive means small, poorly fitted or top-dose-only effect, or effect the other way; inactive means no such curve, though single readings can be large or run the other way.
Just give me one of these, please: active, inactive

Some solved entries appear below for comparison.
1) CC1(C)Cc2c(-c3ccccc3)c(-c3ccc(Cl)cc3)c(CC(=O)O)n2C1	active
2) O=c1[nH]c(-c2ccc(C(F)(F)F)cc2)nc2c1CSCC2	inactive
3) Nc1nc2ccc(OC(F)(F)F)cc2s1	inactive
4) CCCS(=O)(=O)Nc1ccc(F)c(C(=O)c2c[nH]c3ncc(-c4ccc(Cl)cc4)cc23)c1F	inactive
5) CCN(CC)CCCC(C)Nc1nc(C)cc(Nc2ccc3nc(C)cc(N)c3c2)n1 (stereo unspecified)	active

Q: Outcome? Nc1ccc(S(=O)(=O)Nc2ccnn2-c2ccccc2)cc1
A: inactive

Q: Outcome? Clc1ccc(Nc2nnc(Cc3ccncc3)c3ccccc23)cc1
A: active

Q: Outcome? O=C1CCC(N2C(=O)c3ccccc3C2=O)C(=O)N1 (stereo unspecified)
A: inactive

Q: Outcome? COc1c(Cl)cc2c([nH]c3cnccc32)c1NC(=O)c1cccnc1C
A: active

Q: Outcome? Nc1ncnc2nc(-c3ccc(N4CCOCC4)nc3)cc(-c3cccc(Br)c3)c12
A: inactive

Q: Outcome? O=C(O)COCCN1CCN(C(c2ccccc2)c2ccc(Cl)cc2)CC1 (stereo unspecified)
A: inactive

* * *

- Assay name: Quantitative High-Throughput drug screen in 47 multiple myeloma cell lines against the NCATS MIPE library collection: Karpas620_DSMZ cell viability assay (AID 1918959); further: nearly all actives have a fitted effect of over 30% in size; further: potency means the concentration at half of the fitted maximal effect
- Recorded conditions: Karpas620 myeloma viability, CellTiter-Glo ATP luminescence, 48 h; series mostly up to 45.8 µM
Results filed as inconclusive are left out. Calls of active or inactive are those of the source. Calls come from the whole dose curve; as a rule, active = well fitted cell-killing curve with a large enough effect; inconclusive = small, poorly fitted or top-dose-only effect, or effect the other way; inactive = no such curve, though single readings can be large or run the other way.
Reported property: Potency

1. O=C(O)[C@@H](c1ccc(OCc2ccc3ccccc3n2)cc1)C1CCCC1	inactive
2. CCCCCCCc1ccc(CCc2cccc(O)c2C(=O)O)cc1	inactive
3. COc1ccc2c3n(c(=NC(=O)c4cccnc4)nc2c1OC)CCN3	7.43 µM (active)
4. COc1ccc(-c2c(-c3ccc(O)cc3O)n[nH]c2C)cc1	42.9 µM (active)
5. CC(C)C[C@H](NC(=O)[C@@H](O)[C@H](N)Cc1ccccc1)C(=O)O	inactive

Q: Look up and report measured Potency for this entry: Cc1ccnc(NS(=O)(=O)c2ccc(NC(=O)Nc3ccc(S(=O)(=O)Nc4nccc(C)n4)cc3)cc2)n1
A: 16.6 µM (active)

Q: Look up and report measured Potency for this entry: N#CC[C@H](C1CCCC1)n1cc(-c2ncnc3[nH]ccc23)cn1
A: 5.26 µM (active)

Q: Look up and report measured Potency for this entry: Cc1cc(SCc2sc(-c3ccc(C(F)(F)F)cc3)nc2C)ccc1OCC(=O)O
A: inactive

Q: Look up and report measured Potency for this entry: O=C(C=Cc1ccc(/C=C/C(=O)Nc2ccc(C3=NCCN3)cc2)cc1)Nc1ccc(C2=NCCN2)cc1
A: inactive

Q: Look up and report measured Potency for this entry: CCCCNc1cc(C(=O)O)cc(S(N)(=O)=O)c1Oc1ccccc1
A: inactive

Data origin: PubChem BioAssay (NCATS)
